The origin of these recorded values is patent US20170081331A1.

TARGET DESC: whole RNP complex of IAV strain A/PR/8/34 (Influenza A virus, UniProt P03433)
TEST SUMMARY: Transcription assay (TA assay), Quantigene detection of de novo viral mRNA
Format: biochemical, influenza A virus A/PR/8/34
ASSAY SETUP: 80 pM RNPs, 2 nM capped RNA substrate, cell-free; read-out: TA assay IC50
QUANTITY KIND: IC50 (µM)

>>> recorded_value("O=C(O)c1nn2c(c1O)C(=O)NCC2Cc1ccccc1 (centres unmarked)")
35.1
>>> recorded_value("O=C(O)c1nn2c(c1OCc1ccccc1)C(=O)NCC2")
0.532
>>> recorded_value("CC(C)N1CC(c2ccccc2)n2c(c(O)c(=O)n2Cc2ccccc2)C1=O (centres unmarked)")
5.85
>>> recorded_value("CN1CC(Cc2ccccc2)n2nc(C(=O)O)c(O)c2C1=O (centres unmarked)")
25.5
>>> recorded_value("CC(C)N1CC(Cc2ccccc2)n2nc(C(=O)O)c(O)c2C1=O (centres unmarked)")
13.2
